- Tested on: NCI-H23 lung
- EXPERIMENT_NOTES: NCI-60 one-dose screen, 48 h (100 = growth as untreated, 0 = no growth, -100 = all killed)
- ASSAY_SETUP: 10 µM unless noted
This is part of a sample that, as a whole, favours compounds with a hit. Of some 83,000 tested, about 20% had one in any assay. Activity calls are given as the source filed them. How the source made its calls: active means growth percent below 10; inactive means the rest.
Reported growth values are given for each entry in this list.

The examples below pair each entry with its known result.
# COMPOUND, TESTED_ON, growth
records = [
    ("Oc1ccccc1/C=N/N1CCCCCC1", "NCI-H23 lung", "101% (inactive)"),
    ("COc1ccc(NC(=O)c2ccc(-c3ccccc3)cc2)c(C(N)=O)c1", "NCI-H23 lung", "94.5% (inactive)"),
    ("c1ccc(N2c3nc4ccccc4cc3Sc3cc4ccccc4nc32)nc1", "NCI-H23 lung", "93.7% (inactive)"),
    ("Cc1ccc(/C=C(/C#N)n2nnc3ncccc32)cc1", "NCI-H23 lung", "-1.23% (active)"),
    ("COc1c(O)cc2c(c1CC=C(C)C)OC(=O)c1c(cc(O)c(CC=C(C)C)c1O)O2", "NCI-H23 lung", "-8.77% (active)"),
    ("CCOC(=O)CCN(c1c(Cl)ssc1=O)C(C)C", "NCI-H23 lung", "105% (inactive)"),
    ("FCc1ncc(-c2ccc(C(F)(F)F)cc2)c(NC2CCCCCC2)n1", "NCI-H23 lung", "10.9% [100 µM] (inactive)"),
    ("O=C(Nc1ccc(Cl)cc1)Nc1ccccc1CNc1nc(Nc2ccc(OCCN3CCCC3)cc2)ncc1Cl", "NCI-H23 lung", "33.5% (inactive)"),
    ("CCOc1cc(/C=C/C(=O)C(C(=O)/C=C/c2ccc(OC(=O)CNc3nnc(C)s3)c(OCC)c2)C(=O)CNc2nnc(C)s2)ccc1OC(=O)CNc1nnc(C)s1", "NCI-H23 lung", "-2.16% (active)"),
    ("Cn1c(N2N=C(c3ccc(Cl)cc3)CC2c2ccccc2)nc(-c2ccccc2)c(C#N)c1=O (stereo not drawn)", "NCI-H23 lung", "66.3% (inactive)"),
]

From here, focus on the item given below.
Which growth is listed for CC(NC(N)=S)c1ccccc1 (stereo not drawn) ?
110% (inactive)

----------
- System: HCC-2998 colon
- EXPERIMENT_NOTES: NCI-60 one-dose screen, 48 h (100 = growth as untreated, 0 = no growth, -100 = all killed)
- ASSAY_SETUP: 10 µM unless noted
- Procedure: Growth inhibition of the HCC-2998 human tumor cell line is measured as a screen for anti-cancer activity. Cells are grown in 96 well plates and exposed to the test compound for 48 hours. Compounds are tested at a single concentration, which is 10^-5 M for most compounds. The reported endpoint is percent growth (GI% or GIPRCNT), where numbers from 0 - 100% represent growth inhibition, and numbers from -100% - 0 represent cell death. For example, a value of 40 represents 60% growth inhibition. […]
About 83,000 compounds went through this panel and 20% of them were active in at least one assay; those are over-represented in the sample as a whole.
Outcome label depends on growth relative to 80%: at/above gives 1.0, below gives 0.0.

# COMPOUND, TESTED_ON, ASSIGNED_CATEGORY
rows = [
    ("CN(C)c1ccc(-n2nc3ccccc3n2)cc1", "HCC-2998 colon", 0.0),
    ("COc1ccc2c(c1)C(=Nc1cc(OC)c(OC)c(OC)c1)C(=O)N2", "HCC-2998 colon", 1.0),
    ("NC(=NCCCCCCN=C(N)/N=C(\\N)Nc1ccc(Cl)cc1)/N=C(\\N)Nc1ccc(Cl)cc1", "HCC-2998 colon", 0.0),
]

For this compound, is measured growth 80% or higher? CC(=O)N1N=C(c2ccc(Cl)cc2)CC1c1c(C)nn(-c2ccccc2)c1N(C)Cc1ccccc1 (stereo not given)
1.0
